# Experimental details: soluble fraction after stress (log2 fold change); higher = more stays soluble; pooled small domains, quantitative proteomics
# Condition details: stress: pH 4
Measured endpoint: soluble fraction (log2)
Give bare numbers.

See these solved cases before continuing.
> print(dat)
                                biosequence  assay.result
1  HMRDLAEAETILDALPTRLRKIVRWRHLEGLSQTEIAARLEISQMHVSRLYRRAISMIHASLADD        -0.843
2  HMVLVLPGEMIHVQVIDEGKEMGQGVGYLDDGTMVVVENGLRHIGRAIDVQVTKVLQTNAGRMIFGQPIL        -0.952
3  HMNISRESLIGQILATLNKNPEEGFNYKQIAKRLNITDSPGRQMISDLLRELSKHGSLQEISHGKYKIKV         0.215
4  HMNDIDKFVAALVDQDTMAGTNRAFDENDIQTMKNMSSIEDVKQYAVANGLSSGKVNNALISAGL        -0.195

Request: Note soluble fraction (log2) for the sequence shown: HMREEQELFRKLLEVNGIGPKVAAGMLAGGRPEDVVSAIRREDVAWLTKLPGIGRKTAQRIVLDLKDKLD
Result: 0.165
